Activity overview
studyTarget: Polyunsaturated fatty acid lipoxygenase ALOX15 (Homo sapiens) (UniProt P16050)
Sequence (P16050 whole entry): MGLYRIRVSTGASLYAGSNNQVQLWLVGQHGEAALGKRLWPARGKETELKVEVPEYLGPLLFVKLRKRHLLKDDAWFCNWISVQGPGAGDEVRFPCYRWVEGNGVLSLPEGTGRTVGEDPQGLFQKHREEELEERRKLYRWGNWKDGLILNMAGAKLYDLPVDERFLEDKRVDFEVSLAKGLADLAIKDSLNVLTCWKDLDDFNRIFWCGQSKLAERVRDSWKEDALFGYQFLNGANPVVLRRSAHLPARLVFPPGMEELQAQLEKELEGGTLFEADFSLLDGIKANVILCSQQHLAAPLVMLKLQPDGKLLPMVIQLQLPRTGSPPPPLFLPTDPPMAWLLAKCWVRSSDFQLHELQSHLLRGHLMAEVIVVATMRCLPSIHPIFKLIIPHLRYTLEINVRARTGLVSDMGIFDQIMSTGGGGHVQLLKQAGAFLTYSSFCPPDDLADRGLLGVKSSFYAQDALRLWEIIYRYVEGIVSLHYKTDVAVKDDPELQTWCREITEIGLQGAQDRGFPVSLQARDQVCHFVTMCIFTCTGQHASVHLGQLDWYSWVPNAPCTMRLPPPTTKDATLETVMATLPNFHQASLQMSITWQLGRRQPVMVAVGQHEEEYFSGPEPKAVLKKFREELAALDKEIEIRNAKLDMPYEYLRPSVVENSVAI
procedureText: Inhibition of recombinant human 15-LOX-1 expressed in Escherichia coli BL21(DE3) assessed as residual activity at 50 uM using linoleic acid as substrate preincubated for 10 mins followed by substrate addition
measurementType: Activity

INSERT INTO assay_data (molecule, reported) VALUES
  ('COc1ccc(-c2c(C(=O)c3ccccc3)[nH]c(N)c2C(=O)c2c[nH]c3ccccc23)cc1OC', '82.5%'),
  ('Nc1[nH]c(C(=O)c2ccccc2)c(-c2c(F)cccc2F)c1C(=O)c1ccc(Cl)c(Cl)c1', '100%'),
  ('CCCCCCNC(=O)c1c(N)[nH]c(C(=O)c2ccccc2)c1-c1ccc(O)cc1', '90.8%'),
  ('Nc1[nH]c(C(=O)c2ccccc2)c(-c2cccc3ccccc23)c1C(=O)NCc1ccc(Cl)cc1Cl', '115%'),
  ('Nc1[nH]c(C(=O)c2ccccc2)c(-c2cccnc2)c1C(=O)c1ccccc1', '84.9%'),
  ('Nc1[nH]c(C(=O)c2ccccc2)c(-c2ccccc2Br)c1C(=O)NCCc1c[nH]c2ccccc12', '61.9%'),
  ('COC(=O)c1c(N)[nH]c(C(=O)c2ccccc2)c1-c1ccc(Br)cc1', '94%'),
  ('Nc1[nH]c(C(=O)c2ccccc2)c(-c2ccccc2)c1C(=O)NCCc1c[nH]c2ccccc12', '63.2%'),
  ('CC(C)(C)C(=O)c1c(N)[nH]c(C(=O)c2ccccc2)c1-c1ccc(Cl)cc1Cl', '79.9%'),
  ('CC(NC(=O)c1c(N)[nH]c(C(=O)c2ccc(Cl)cc2)c1-c1ccc(Br)cc1)c1cccc2ccccc12 (stereo not given)', '122%'),
  ('Nc1[nH]c(C(=O)c2ccccc2)c(-c2ccccn2)c1C(=O)c1c[nH]c2ccccc12', '104%'),
  ('Nc1[nH]c(C(=O)c2ccccc2)c(-c2ccccc2Br)c1C(=O)NCc1ccc(-c2ccccc2)cc1', '91.3%'),
  ('Nc1[nH]c(C(=O)c2ccccc2)c(-c2cccnc2)c1C(=O)NCCc1c[nH]c2ccccc12', '82.5%'),
  ('Nc1[nH]c(C(=O)c2ccccc2)c(-c2ccc(Cl)cc2)c1C(=O)NCCC1=CCCCC1', '94.9%'),
  ('COc1cc(-c2c(C(=O)c3ccccc3)[nH]c(N)c2C(N)=O)ccc1O', '98.8%'),
  ('Cc1ccc(-c2c(C(=O)c3ccccc3)[nH]c(N)c2C(=O)NCCc2c[nH]c3ccccc23)cc1', '33.3%'),
  ('Nc1[nH]c(C(=O)c2ccc(Br)cc2)c(-c2ccc3c(c2)OCO3)c1C(=O)NCCc1c[nH]c2ccccc12', '75.9%'),
  ('Nc1[nH]c(C(=O)c2ccccc2)c(-c2ccc3ccccc3c2)c1C(=O)NC1CC1', '83.5%'),
  ('NC(=O)c1c(N)[nH]c(C(=O)c2ccccc2)c1-c1ccc(Br)cc1', '99.3%'),
  ('Nc1[nH]c(C(=O)c2ccccc2)c(-c2cccc3ccccc23)c1C(=O)c1cccs1', '73.7%'),
  ('Nc1[nH]c(C(=O)c2ccc(Br)cc2)c(-c2ccc(Cl)c(Cl)c2)c1C(=O)NCCc1c[nH]c2ccccc12', '50%'),
  ('Nc1[nH]c(C(=O)c2ccccc2)c(-c2ccccc2C(F)(F)F)c1C(=O)c1c[nH]c2ccccc12', '94.1%'),
  ('CC(C)(C)C(=O)c1c(N)[nH]c(C(=O)c2ccccc2)c1-c1c(F)cccc1F', '91.9%'),
  ('CC(NC(=O)c1c(N)[nH]c(C(=O)c2ccccc2)c1-c1ccccc1Br)c1cccc2ccccc12 (stereo not given)', '71.3%'),
  ('Nc1[nH]c(C(=O)c2ccccc2)c(-c2cccc3ccccc23)c1C(=O)c1ccc(Br)cc1', '107%');
